Taken from the Kinase Knowledgebase extract (Sharma et al. 2016).

Could you please report measured inhibition for the items listed next?
target: CDK2 (UniProt P24941); test: Enzyme Assay; conditions: concentration not given here
Answers are plain numbers, in %.

The following molecules have reported results that may help.
{"structure.smiles": "CS(=O)(=O)c1ccccc1S(=O)(=O)Nc1ccc2[nH]nc(-c3ccc(Cl)s3)c2c1", "tested.target": "CDK2 (UniProt P24941)", "inhibition [%]": 55}
{"structure.smiles": "O=S(=O)(Nc1ccc2[nH]nc(-c3ccccc3)c2c1)c1ccccc1F", "tested.target": "CDK2 (UniProt P24941)", "inhibition [%]": 81}
{"structure.smiles": "CC(C)c1ccc(-c2n[nH]c3ccc(NS(=O)(=O)c4ccccc4S(C)(=O)=O)cc23)cc1", "tested.target": "CDK2 (UniProt P24941)", "inhibition [%]": 24}
{"structure.smiles": "CS(=O)(=O)c1ccccc1S(=O)(=O)Nc1ccc2[nH]nc(-c3ccoc3)c2c1", "tested.target": "CDK2 (UniProt P24941)", "inhibition [%]": 80}
{"structure.smiles": "CS(=O)(=O)c1ccccc1S(=O)(=O)Nc1ccc2[nH]nc(-c3ccc(Cl)c(Cl)c3)c2c1", "tested.target": "CDK2 (UniProt P24941)", "inhibition [%]": 66}
{"structure.smiles": "O=C(Nc1n[nH]c2ccc(NS(=O)(=O)c3cc(F)cc(F)c3)cc12)c1ccccc1", "tested.target": "CDK2 (UniProt P24941)", "inhibition [%]": 82}
{"structure.smiles": "O=S(=O)(Nc1ccc2[nH]nc(-c3ccccc3)c2c1)c1cc(F)cc(F)c1", "tested.target": "CDK2 (UniProt P24941)", "inhibition [%]": 68}
{"structure.smiles": "COC(=O)c1cccc(-c2n[nH]c3ccc(NS(=O)(=O)c4ccccc4S(C)(=O)=O)cc23)c1", "tested.target": "CDK2 (UniProt P24941)", "inhibition [%]": 64}

Query (molecule): CS(=O)(=O)c1ccccc1S(=O)(=O)Nc1ccc2[nH]nc(-c3nc4ccccc4[nH]3)c2c1 ; field requested: inhibition
99
